# Target Entity: Indoleamine 2,3-dioxygenase 1 (Homo sapiens)
# Sequence (P14902 whole entry): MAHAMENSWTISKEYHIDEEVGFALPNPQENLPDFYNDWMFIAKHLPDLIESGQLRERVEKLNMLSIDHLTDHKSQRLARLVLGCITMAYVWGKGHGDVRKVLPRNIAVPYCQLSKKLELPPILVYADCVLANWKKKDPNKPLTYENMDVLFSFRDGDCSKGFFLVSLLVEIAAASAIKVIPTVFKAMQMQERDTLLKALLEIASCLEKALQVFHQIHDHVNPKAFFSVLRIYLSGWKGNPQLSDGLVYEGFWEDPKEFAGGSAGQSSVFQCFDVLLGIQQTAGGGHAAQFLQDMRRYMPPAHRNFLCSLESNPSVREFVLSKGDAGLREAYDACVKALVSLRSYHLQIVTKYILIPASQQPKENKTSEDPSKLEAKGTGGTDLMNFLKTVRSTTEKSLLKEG
# Procedure Text: Inhibition of human recombinant IDO1 incubated for 1 hr by HPLC analysis
Measurement Name: pIC50
pIC50 here is simply -log10 of the concentration when that concentration is written in mol/L.

Give the measured pIC50 for "O=C(NNc1ccccc1)c1n[nH]c2cc(Br)ccc12"
6.14

====

# Procedure Text: Cytotoxicity against human DPSC cells assessed as reduction of cell viability at 20 uM measured after 24 hrs by MTT assay
# Assay type: toxicity, cell-based
Measurement Name: Activity
# output: number + unit

Example entries and their recorded answers appear below.
>>> experimental_value("Cc1nn(C)c2cc(NCc3ccc(O)cc3)ccc12")
"94.7%"
>>> experimental_value("COc1cc(CNc2ccc3c(C)nn(C)c3c2)cc(OC)c1OC")
"82.54%"

Next compound, Activity to be filled in.
Answer with the recorded Activity of "COc1ccc(CNc2ccc3c(C)nn(C)c3c2)cc1O" only.
86.87%
